B1: Manganese-dependent inorganic pyrophosphatase, P37487 (parent)
chain: MEKILIFGHQNPDTDTICSAIAYADLKNKLGFNAEPVRLGQVNGETQYALDYFKQESPRLVETAANEVNGVILVDHNERQQSIKDIEEVQVLEVIDHHRIANFETAEPLYYRAEPVGCTATILNKMYKENNVKIEKEIAGLMLSAIISDSLLFKSPTCTDQDVAAAKELAEIAGVDAEEYGLNMLKAGADLSKKTVEELISLDAKEFTLGSKKVEIAQVNTVDIEDVKKRQAELEAVISKVVAEKNLDLFLLVITDILENDSLALAIGNEAAKVEKAFNVTLENNTALLKGVVSRKKQVVPVLTDAMAE

Variants of: B1
Experimental context: Bacillus subtilis (strain 168); pH 7.2; Thermal; CD; TES-KOH 21 mM; KCl 4 mM; reversible: No; structure 1K23; whole UniProt chain shown
Answer each item with its documented Tm.
Just so you know, I need the unit written after the number.

>>> df
   sequence_change  measured_property  obs_value
0            D203E                 Tm      42 °C

I would be grateful if you could provide Tm for each of the following entries.
1. H76Q
2. H98Q
3. H9Q

59 °C
48 °C
54 °C

// provenance: FireProtDB (doi:10.1021/bi047926u)
